System: MIWI (PIWIL1) piRISC loaded with L1MC piRNA (30 nt);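 also: 1 nM active piRISC with 0.1 nM target library at 33 °C single turnover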
Experiment: pre-steady-state target cleavage rate (min^-1); higher = faster piRNA-guided slicing of the target
Settings: guide: L1MC piRNA 5'p-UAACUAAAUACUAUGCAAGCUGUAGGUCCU; auxiliary factor: none (no GTSF1)
In all, about 8,200 sequences were measured (“pre-steady-state target cleavage rate”: median about 0.024, highest 2% from about 1.3 on). For the sample, the highest values were picked, then their nearest neighbours and some sequences at random.
Consider the following sequences and their measured pre-steady-state target cleavage rate readings.

- sequence_text: "AAGGACCUACAGCUUGCAUAGUAUUUAGUUA"
  target: "MIWI (PIWIL1) piRISC loaded with L1MC piRNA (30 nt)"
  pre-steady-state target cleavage rate: 0.0755
- sequence_text: "AGGUGCUACAGCUUGCAUAGUAUUUAGUUA"
  target: "MIWI (PIWIL1) piRISC loaded with L1MC piRNA (30 nt)"
  pre-steady-state target cleavage rate: 0.0832
- sequence_text: "GGGACCUACAGCUUGCAUAGUAUUUAGUUA"
  target: "MIWI (PIWIL1) piRISC loaded with L1MC piRNA (30 nt)"
  pre-steady-state target cleavage rate: 0.113
- sequence_text: "UGGACCUACUGCUUGCAUAGUAAUUAGUUA"
  target: "MIWI (PIWIL1) piRISC loaded with L1MC piRNA (30 nt)"
  pre-steady-state target cleavage rate: 0.033
- sequence_text: "UCCUGCUACAGCUUGCAUAGUGUUUAGUUA"
  target: "MIWI (PIWIL1) piRISC loaded with L1MC piRNA (30 nt)"
  pre-steady-state target cleavage rate: 0.0278
- sequence_text: "AGGACCUACAGCUUGCAUAGUAUUUAGUUG [g2:g30:cont:t1G]"
  target: "MIWI (PIWIL1) piRISC loaded with L1MC piRNA (30 nt)"
  pre-steady-state target cleavage rate: 0.0773
- sequence_text: "UCCUGGACCAGCUUGCAUAGUAUUUAGUUA"
  target: "MIWI (PIWIL1) piRISC loaded with L1MC piRNA (30 nt)"
  pre-steady-state target cleavage rate: 0.0367
- sequence_text: "UCCUGCUACAGCUUGCAUAGUAUUUAGUCUA"
  target: "MIWI (PIWIL1) piRISC loaded with L1MC piRNA (30 nt)"
  pre-steady-state target cleavage rate: 0.00747
- sequence_text: "AGGGACCUACAGCUUGCAUAGUAUUUAGUUA"
  target: "MIWI (PIWIL1) piRISC loaded with L1MC piRNA (30 nt)"
  pre-steady-state target cleavage rate: 0.102
- sequence_text: "UCCUGCUACUGCUUGCAUAGUAUAUAGUUA"
  target: "MIWI (PIWIL1) piRISC loaded with L1MC piRNA (30 nt)"
  pre-steady-state target cleavage rate: 0.0142
- sequence_text: "UCCUCCUACAGCUUGCAUAGUAUUUAGUUA [g2:g26:cont:t1A]"
  target: "MIWI (PIWIL1) piRISC loaded with L1MC piRNA (30 nt)"
  pre-steady-state target cleavage rate: 0.0816
- sequence_text: "UGGGACCUACAGCUUGCAUAGUAUUUAGUUA"
  target: "MIWI (PIWIL1) piRISC loaded with L1MC piRNA (30 nt)"
  pre-steady-state target cleavage rate: 0.134
- sequence_text: "AGGACCUACAGCUUGCAUAGUAUUUUAGUUA"
  target: "MIWI (PIWIL1) piRISC loaded with L1MC piRNA (30 nt)"
  pre-steady-state target cleavage rate: 0.056
- sequence_text: "ACCUCCUACAGCUUGCAUAGUAUUUAGUUA"
  target: "MIWI (PIWIL1) piRISC loaded with L1MC piRNA (30 nt)"
  pre-steady-state target cleavage rate: 0.0784
- sequence_text: "AGGACCUACAGCUUGCAUAGUAUUUAGUUUA"
  target: "MIWI (PIWIL1) piRISC loaded with L1MC piRNA (30 nt)"
  pre-steady-state target cleavage rate: 0.11
- sequence_text: "UCCUGCUACAGCUUGCAUAGUAUAUUGUUA"
  target: "MIWI (PIWIL1) piRISC loaded with L1MC piRNA (30 nt)"
  pre-steady-state target cleavage rate: 0.0123
- sequence_text: "AGGACCUACAGCUUGCAUAGUAUUUAGUUU [g2:g30:cont:t1U]"
  target: "MIWI (PIWIL1) piRISC loaded with L1MC piRNA (30 nt)"
  pre-steady-state target cleavage rate: 0.165
- sequence_text: "UCCUCCUACAGCUUGCAUAGUAUUUAGUUC [g2:g26:cont:t1C]"
  target: "MIWI (PIWIL1) piRISC loaded with L1MC piRNA (30 nt)"
  pre-steady-state target cleavage rate: 0.0511
- sequence_text: "UCCACCUACACCAUGCAUAGUAUUUAGUUA"
  target: "MIWI (PIWIL1) piRISC loaded with L1MC piRNA (30 nt)"
  pre-steady-state target cleavage rate: 0.0161
- sequence_text: "UCCUUCUACAGCUUGCAUAGUAUUUAGUUA"
  target: "MIWI (PIWIL1) piRISC loaded with L1MC piRNA (30 nt)"
  pre-steady-state target cleavage rate: 0.0527
- sequence_text: "UCCUGGAACAGCUGGCAUAGUAUUUAGUUA"
  target: "MIWI (PIWIL1) piRISC loaded with L1MC piRNA (30 nt)"
  pre-steady-state target cleavage rate: 0.0271
- sequence_text: "ACGGACCUACAGCUUGCAUAGUAUUUAGUUA"
  target: "MIWI (PIWIL1) piRISC loaded with L1MC piRNA (30 nt)"
  pre-steady-state target cleavage rate: 0.0796
- sequence_text: "UCCUCUCUACAGCUUGCAUAGUAUUUAGUUA"
  target: "MIWI (PIWIL1) piRISC loaded with L1MC piRNA (30 nt)"
  pre-steady-state target cleavage rate: 0.0529
- sequence_text: "UCCUGGAUGAGCUUGCAUAGUAUAUUGUUA"
  target: "MIWI (PIWIL1) piRISC loaded with L1MC piRNA (30 nt)"
  pre-steady-state target cleavage rate: 0.0157
- sequence_text: "AGGACCUACAGCUUGCAUUGUAUUUAGUUA"
  target: "MIWI (PIWIL1) piRISC loaded with L1MC piRNA (30 nt)"
  pre-steady-state target cleavage rate: 0.0656
- sequence_text: "AGGACCUACAGCUUGCAUAGUAUUUAGUUA [g2:g30:cont:t1A]"
  target: "MIWI (PIWIL1) piRISC loaded with L1MC piRNA (30 nt)"
  pre-steady-state target cleavage rate: 0.0941

---

Tested on: MIWI (PIWIL1) piRISC loaded with L1MC piRNA (30 nt);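 also: 1 nM active piRISC with 0.1 nM target library at 33 °C single turnover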
Test: pre-steady-state target cleavage rate (min^-1); higher = faster piRNA-guided slicing of the target
Settings: guide: L1MC piRNA 5'p-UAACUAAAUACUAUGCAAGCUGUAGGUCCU; auxiliary factor: 500 nM mouse GTSF1
Over roughly 8,200 sequences, “pre-steady-state target cleavage rate” has its median near 0.024; the highest 2% begin near 1.3. The full list was thinned out, with the highest values kept by preference.
Consider the following sequences and their measured pre-steady-state target cleavage rate readings.

- sequence_text: "UGGACCUACAGCAAGCAUAGUAUUUAGAAA"
  pre-steady-state target cleavage rate: 0.271
- sequence_text: "UGGACGUACAGCUUGCAUAGUAUUUUGUUA"
  pre-steady-state target cleavage rate: 0.75
- sequence_text: "UCCUGGAUCAGCUUGCAUAGUAUUUAGCUA"
  pre-steady-state target cleavage rate: 0.0164
- sequence_text: "UGGACCUACAGUUUGCAUAGUAUUUAGUUA"
  pre-steady-state target cleavage rate: 1.5
- sequence_text: "UCCUCCUACAGCUUGCUAAGUAUUUAGUAA"
  pre-steady-state target cleavage rate: 0.066
- sequence_text: "UCCACCUACAGGUUGCAUAGUAUUUACAAA"
  pre-steady-state target cleavage rate: 0.336
- sequence_text: "UCCUGCAUACAGCUUGCAUAGUAUUUAGUUA"
  pre-steady-state target cleavage rate: 1.63

---

Test system: MIWI (PIWIL1) piRISC loaded with L1MC piRNA (30 nt);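 also: 1 nM active piRISC with 0.1 nM target library at 33 °C single turnover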
Assay: pre-steady-state target cleavage rate (min^-1); MIWI and MILI are mouse PIWI proteins and EfPiwi is from a freshwater sponge; tags in brackets are library labels; higher = faster piRNA-guided slicing of the target;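 also: 1 nM active piRISC with 0.1 nM target library at 33 °C single turnover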
Details: guide: L1MC piRNA 5'p-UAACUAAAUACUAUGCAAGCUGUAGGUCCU; auxiliary factor: 500 nM mouse GTSF1
Over roughly 8,200 sequences, “pre-steady-state target cleavage rate” has its median near 0.024; the highest 2% begin near 1.3. For the sample, the highest values were picked, then their nearest neighbours and some sequences at random.

- sequence_text: "UCCAACUACAGCUUGCAUAGUAUUUAGUUA"
  pre-steady-state target cleavage rate: 0.646
- sequence_text: "UCGACCUACAACUUGCAUAGUAUUUAGUUA"
  pre-steady-state target cleavage rate: 1.33
- sequence_text: "UGGACCUACAGCUUGCAAUGUAUUUACAAA"
  pre-steady-state target cleavage rate: 0.0217
- sequence_text: "UGCACCAACAGCUUGCAUAGUAUUUAGUUA"
  pre-steady-state target cleavage rate: 1.23
- sequence_text: "UCCUGGAUGUGCAUGCAUAGUAUUUAGUAA"
  pre-steady-state target cleavage rate: 0.0251
- sequence_text: "UCCUCCAACAGCUUGCAUAGUAUUUAGUUA"
  pre-steady-state target cleavage rate: 1.37
- sequence_text: "UCGACCAACAGCUUGCAUAGUAUUUAGAUA"
  pre-steady-state target cleavage rate: 0.54
- sequence_text: "UCGACCAACAGCUUGCAUAGUAUUUAGUUA"
  pre-steady-state target cleavage rate: 1.62
- sequence_text: "UCCUGGUUGUGCUUGCAUAGUAUUUAGUAA"
  pre-steady-state target cleavage rate: 0.2
- sequence_text: "UGGACCUACACUUGCAUAGUAUUUAGUUA"
  pre-steady-state target cleavage rate: 1.33
- sequence_text: "AGGACCUACAACUUGCAUAGUAUUUAGUUA"
  pre-steady-state target cleavage rate: 1.08
- sequence_text: "UCGUCCAACAGCUUGCAUAGUAUUUAGUUA"
  pre-steady-state target cleavage rate: 1.4
- sequence_text: "UCCUGGAUGUGCUUGCAUAGUGAUUUAGUUA"
  pre-steady-state target cleavage rate: 0.00393
